Procedure Summary: melting temperature; fluorescence melt of hairpins on a sequencing array, two-state fit, raised by 9.35 °C to match UV melts
Condition Parameters: sodium 0.088 M
Measure: Tm (°C)
Numbers only here, please. The scale is °C.

Examples with answers:
- GGGATGCGAAAGCACCCC (((.(((....))).))): 61.4
- CGGGCGGAAACGCACCCG ((((((....)))..))): 48.8
- GTTGGTGCGAAAGCAAAC (((..(((....)))))): 43
- GTCTTAGGAAACTAGGAC (((.(((....))).))): 38.4
- GATCACACCTGTGATC ((((((....)))))): 57.2

For the sequence CGACCGGAAACGGCCTCG ((((((....)))..))) , report Tm.
30.2

For the sequence GCGTACGAAAGTAACGC ((((((....))).))) , report Tm.
59.4

For the sequence GATCGTCGGCACGATC ((((((....)))))) , report Tm.
53

For the sequence GATCATTTAAATGATC ((((((....)))))) , report Tm.
48.4

For the sequence GACGGTGGAAACGCCGTC (((((.(....).))))) , report Tm.
62.9

For the sequence CAATCAGAAATGGTTG (((.((....)).))) , report Tm.
29.3

For the sequence GCCGGGCGAAAGCTTGGC (((..((....))..))) , report Tm.
65.3

---

Procedure Summary: folding enthalpy; higher = less favourable; fluorescence melt of hairpins on a sequencing array, two-state fit
Condition Parameters: sodium 0.088 M
Hi, to clarify the labels: yes (1) covers folding enthalpy from -20 kcal/mol upward, no (0) covers anything below -20 kcal/mol.

Would you please look over these solved cases?
• GGAGTGGGAAACCATTCC (((.(((....))).))) = no (0)
• TCTCCGAAAGGAGA (((((....))))) = yes (1)
• GGATAGACGAAAGTCTCC (((..(((....)))))) = yes (1)

Shift focus to the following entry.
Given the entry GATCAATCAATTGATC ((((((....)))))) , answer whether its folding enthalpy meets or surpasses -20 kcal/mol.
no (0)

---

Procedure Summary: folding enthalpy; higher = less favourable; fluorescence melt of hairpins on a sequencing array, two-state fit
Condition Parameters: sodium 0.088 M
Measure: folding enthalpy (kcal/mol)
Numbers only here, please. The scale is kcal/mol.

Examples with answers:
* GTTTCAGGAAACTGAGAC ((.((((....)))).)) | -24.9
* GATCTTTAGAAGATC ((((((...)))))) | -24.7
* GATGTAGGAAACTATATC (((.(((....))).))) | -28.5
* GCGTTTTACGC ((((...)))) | -23
* GCGTTAAACGC ((((...)))) | -19
* GCCATGCGAAAGCTGGGC (((..((....))..))) | -26.4
* GCATGCGAAAGCAATGC ((((((....))).))) | -31
* GACCAAGGAAACCTGGTC (((((.(....).))))) | -33.4

For the sequence GCAAGCGAAAGCTATTGC ((((((....)))..))) , report folding enthalpy.
-17.5

For the sequence GCAGTAGGAAACTACCGC ((.((((....)))).)) , report folding enthalpy.
-22.5

For the sequence GTGACAGGAAACTGTTGC (..((((....))))..) , report folding enthalpy.
-20.8

For the sequence GTGTCGTCGAAAGACCAC (((..(((....)))))) , report folding enthalpy.
-19.2

For the sequence GATCATAGGAATGATC ((((((....)))))) , report folding enthalpy.
-26

---

Procedure Summary: melting temperature; fluorescence melt of hairpins on a sequencing array, two-state fit, raised by 9.35 °C to match UV melts
Condition Parameters: sodium 0.088 M
Measure: Tm (°C)
Numbers only here, please. The scale is °C.

Examples with answers:
- GAGTCACCGAAAGGTCTC (((..(((....)))))): 28.1
- GGTACGGGAAACCATACC ((((.((....)).)))): 36.7

For the sequence GAGTCCGAAAGGATCTC ((((((....))).))) , report Tm.
50

For the sequence GTGCGCGAAAGCGACAC ((((((....))).))) , report Tm.
63.8

For the sequence GCCGCCCGAAAGGGGGC (((.(((....)))))) , report Tm.
68.7

For the sequence GATCTCCTTTGAGATC ((((((....)))))) , report Tm.
51.7

For the sequence GGCTTAGGAAACTAAGCC (((((((....))))))) , report Tm.
62.9

For the sequence GGAGGCGAAAGCCATCC ((((((....))).))) , report Tm.
49.4

For the sequence GATCTCAAGTGAGATC ((((((....)))))) , report Tm.
51.5

For the sequence ATTGCGAAAGCAAT (((((....))))) , report Tm.
57.6

For the sequence GGCTCCGAAAGGATCGCC ((((((....)))..))) , report Tm.
47.2

For the sequence GGTGACCGAAAGGTAACC (((.(((....))).))) , report Tm.
57.1

For the sequence GCGTCCGAAAGGACTCGC ((((((....)))..))) , report Tm.
51

For the sequence GATCTAACCATAGATC ((((((....)))))) , report Tm.
38.2

---

Procedure Summary: folding enthalpy; higher = less favourable; fluorescence melt of hairpins on a sequencing array, two-state fit
Condition Parameters: sodium 0.088 M
Measure: folding enthalpy (kcal/mol)
Numbers only here, please. The scale is kcal/mol.

* GGGTTCGAAAGAAGCCCC ((((((....)))..))) | -20.9
* GGCTCGTCGAAAGACGCC (((..(((....)))))) | -9.65
* GCGGTAACCGC ((((...)))) | -27.8
* GGTTACTCGAAAGAGACC (((..(((....)))))) | -11.8
* GTAAACGAAAGTTGTTAC ((((((....)))..))) | -10.1

For the sequence GATCCCTAGCGGGATC ((((((....)))))) , report folding enthalpy.
-34.5

For the sequence GACTAAGAAATTAGTC ((((((....)))))) , report folding enthalpy.
-24.9

For the sequence GCACGACGAAAGTCATGC (((.(((....))).))) , report folding enthalpy.
-36.5

---

Below, each of the sequences is paired with its reported Tm value.
Procedure Summary: melting temperature; fluorescence melt of hairpins on a sequencing array, two-state fit, raised by 9.35 °C to match UV melts
Condition Parameters: sodium 0.088 M
Numbers only here, please. The scale is °C.

Examples with answers:
- GCGGGAGGAAACTCCCAC (.(((((....))))).): 48.7
- GGCAACGGAAACGTCGCC (((.(((....))).))): 52.8
- GCGACGGGAAACCGTTGC ((.((((....)))).)): 61
- GGTACCGAAAGGTTCACC ((((((....)))..))): 34.4
- GCGCCGCGAAAGCGATGC ((..(((....)))..)): 60.8

Okay, next one:
For the sequence GGTACCGGAAACGGCACC (((.(((....))).))) , report Tm.
52.5

---

Procedure Summary: folding enthalpy; higher = less favourable; fluorescence melt of hairpins on a sequencing array, two-state fit
Condition Parameters: sodium 0.088 M
Hi, to clarify the labels: T covers folding enthalpy from -30 kcal/mol upward, F covers anything below -30 kcal/mol.

Would you please look over these solved cases?
* CGCCACGGAAACGTCGCG (((.(((....))).))) | F
* GATCTCGTTCGAGATC ((((((....)))))) | F
* GTGCATGGAAACATGCAC (((((((....))))))) | F
* GCTGTCGGAAACGACGGC ((.((((....)))).)) | F

Given the entry GATAAGCGAAAGCTATC (((.(((....)))))) , answer whether its folding enthalpy meets or surpasses -30 kcal/mol.
T

Given the entry GATCACCGAAGTGATC ((((((....)))))) , answer whether its folding enthalpy meets or surpasses -30 kcal/mol.
F

Given the entry GTCACTGGAAACAATGAC ((((.((....)).)))) , answer whether its folding enthalpy meets or surpasses -30 kcal/mol.
T

Given the entry GCGTTGCGAAAGCCGCGC (((..((....))..))) , answer whether its folding enthalpy meets or surpasses -30 kcal/mol.
T

Given the entry GATCGACCTGTCGATC ((((((....)))))) , answer whether its folding enthalpy meets or surpasses -30 kcal/mol.
F

Given the entry GACCGGGGAAACCCGACC (..((((....))))..) , answer whether its folding enthalpy meets or surpasses -30 kcal/mol.
T

Given the entry GATCTATTGCTAGATC ((((((....)))))) , answer whether its folding enthalpy meets or surpasses -30 kcal/mol.
F

Given the entry GATCGTCAATACGATC ((((((....)))))) , answer whether its folding enthalpy meets or surpasses -30 kcal/mol.
F

Given the entry GGTCTGGGAAACTAGGCC ((.((.(....).)).)) , answer whether its folding enthalpy meets or surpasses -30 kcal/mol.
F

Given the entry CGGTTCGGAAACGATCCG (((.(((....))).))) , answer whether its folding enthalpy meets or surpasses -30 kcal/mol.
F

Given the entry GGCCCGGGAAACCGAGCC (((.(((....))).))) , answer whether its folding enthalpy meets or surpasses -30 kcal/mol.
F

Given the entry GCGGAGCGAAAGCTTTGC ((..(((....)))..)) , answer whether its folding enthalpy meets or surpasses -30 kcal/mol.
T

Given the entry GGACGGAAACGTCC (((((....))))) , answer whether its folding enthalpy meets or surpasses -30 kcal/mol.
F

Given the entry GTCCGCGAAAGCGGCGAC ((((((....)))..))) , answer whether its folding enthalpy meets or surpasses -30 kcal/mol.
T

Given the entry GGCGGCGAAAGCCGGGCC ((((((....)))..))) , answer whether its folding enthalpy meets or surpasses -30 kcal/mol.
T

Given the entry GATCGTATAAACGATC ((((((....)))))) , answer whether its folding enthalpy meets or surpasses -30 kcal/mol.
F
